TARGET_SYSTEM: hA1AR (Homo sapiens (Human), UniProt P30542)
Sequence (P30542 whole entry): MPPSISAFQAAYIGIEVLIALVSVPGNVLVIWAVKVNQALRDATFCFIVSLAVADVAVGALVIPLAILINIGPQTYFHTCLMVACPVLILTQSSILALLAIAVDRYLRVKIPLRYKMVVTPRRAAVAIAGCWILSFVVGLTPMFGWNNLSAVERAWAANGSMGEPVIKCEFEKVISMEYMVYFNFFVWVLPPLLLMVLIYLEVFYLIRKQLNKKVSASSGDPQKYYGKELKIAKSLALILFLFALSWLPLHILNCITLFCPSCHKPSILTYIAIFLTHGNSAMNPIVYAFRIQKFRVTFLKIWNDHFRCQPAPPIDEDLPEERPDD
ASSAY_PROCEDURE: A1AR functional assay, inhibition of forskolin-stimulated cyclic AMP production in AR-transfected CHO cells
Assay type: cell-based
CONDITIONS_USED: CHO; read-out: % Inhibition, cyclic AMP A1
QUANTITY_NAME: inhibition at 10 µM (%)
Provide only the numeric value, understood in %.

Enter recorded inhibition at 10 µM with hA1AR (Homo sapiens (Human), UniProt P30542) for O[C@@H]1[C@H](O)[C@@H]2C[C@@H]2[C@H]1n1cnc2c(NC3CCCCCCC3)nc(Cl)nc21 [Compound 112] here.
40.1

Enter recorded inhibition at 10 µM with hA1AR (Homo sapiens (Human), UniProt P30542) for O[C@@H]1[C@H](O)[C@@H]2C[C@@H]2[C@H]1n1cnc2c(NC3CCCCC3)nc(Cl)nc21 [Compound 110] here.
38

Enter recorded inhibition at 10 µM with hA1AR (Homo sapiens (Human), UniProt P30542) for O[C@@H]1[C@H](O)[C@@H]2C[C@@H]2[C@H]1n1cnc2c(N[C@@H](CC3CC3)C3CC3)nc(Cl)nc21 [Compound 219] here.
24

Enter recorded inhibition at 10 µM with hA1AR (Homo sapiens (Human), UniProt P30542) for CC[C@@H](Nc1nc(Cl)nc2c1ncn2[C@H]1[C@H](O)[C@H](O)[C@@H]2C[C@@H]21)C1CC1 [Compound 212] here.
37.3

Enter recorded inhibition at 10 µM with hA1AR (Homo sapiens (Human), UniProt P30542) for O[C@@H]1[C@H](O)[C@@H]2C[C@@H]2[C@H]1n1cnc2c(NCCCF)nc(Cl)nc21 [Compound 116] here.
23.2
